Target: Protease (Human immunodeficiency virus 1) (UniProt Q9YQ12)
Sequence (Q9YQ12 as listed by the source): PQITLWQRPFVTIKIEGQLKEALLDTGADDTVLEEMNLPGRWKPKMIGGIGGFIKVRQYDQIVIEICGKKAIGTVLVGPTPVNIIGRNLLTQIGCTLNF
Assay: Inhibition of recombinant HIV1 protease at 50 nM
Parameter: inhibition. Scope: all listed entries.
Endpoint name: inhibition (%)

| Smiles record | Endpoint name | Observed measurement |
| --- | --- | --- |
| CCCCCNc1cc(C)c(OCC(=O)N[C@@H](Cc2ccccc2)[C@H](O)C(=O)N2CSC(C)(C)[C@H]2C(=O)N[C@H]2c3ccccc3C[C@H]2O)c(C)c1 | inhibition | 78 |
| CCNc1cc(C)c(OCC(=O)N[C@@H](Cc2ccccc2)[C@H](O)C(=O)N2CSC(C)(C)[C@H]2C(=O)N[C@H]2c3ccccc3C[C@H]2O)c(C)c1 | inhibition | 84 |
| Cc1cc(NCc2cccnc2)cc(C)c1OCC(=O)N[C@@H](Cc1ccccc1)[C@H](O)C(=O)N1CSC(C)(C)[C@H]1C(=O)N[C@H]1c2ccccc2C[C@H]1O | inhibition | 91 |
| Cc1cc(NCc2ccccn2)cc(C)c1OCC(=O)N[C@@H](Cc1ccccc1)[C@H](O)C(=O)N1CSC(C)(C)[C@H]1C(=O)N[C@H]1c2ccccc2C[C@H]1O | inhibition | 91 |

====

Molecular target: Plasmepsin II (Plasmodium falciparum, UniProt P46925)
Sequence (P46925 whole entry): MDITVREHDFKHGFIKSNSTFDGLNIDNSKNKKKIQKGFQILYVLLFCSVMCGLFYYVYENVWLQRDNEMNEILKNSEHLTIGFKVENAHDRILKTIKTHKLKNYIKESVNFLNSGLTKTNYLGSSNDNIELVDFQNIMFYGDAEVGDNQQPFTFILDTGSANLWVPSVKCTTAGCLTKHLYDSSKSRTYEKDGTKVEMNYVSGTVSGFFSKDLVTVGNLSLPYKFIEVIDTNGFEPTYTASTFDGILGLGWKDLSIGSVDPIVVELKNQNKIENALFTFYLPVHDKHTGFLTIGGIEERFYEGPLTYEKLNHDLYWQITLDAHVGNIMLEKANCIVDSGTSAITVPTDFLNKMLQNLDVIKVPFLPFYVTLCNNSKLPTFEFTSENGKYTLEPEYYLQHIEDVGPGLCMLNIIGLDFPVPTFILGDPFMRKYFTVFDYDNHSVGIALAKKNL
Hi! Just check whether Ki is below 30 nM. Below gives Met, equal or above gives Not met.

| Smiles record | Class assignment |
| --- | --- |
| COc1ccccc1OCC(=O)N[C@@H](Cc1ccccc1)[C@H](O)C(=O)N1CSC(C)(C)[C@H]1C(=O)N[C@H]1c2ccccc2C[C@H]1O | Not met |
| COc1cccc(OC)c1OCC(=O)N[C@@H](Cc1ccccc1)[C@H](O)C(=O)N1CSC(C)(C)[C@H]1C(=O)N[C@H]1c2ccccc2C[C@H]1O | Not met |
| Cc1cc(NCc2ccccn2)cc(C)c1OCC(=O)N[C@@H](Cc1ccccc1)[C@H](O)C(=O)N1CSC(C)(C)[C@H]1C(=O)N[C@H]1c2ccccc2C[C@H]1O | Met |
| CC1(C)SCN(C(=O)[C@@H](O)[C@H](Cc2ccccc2)NC(=O)COc2ccccc2O)[C@@H]1C(=O)N[C@H]1c2ccccc2C[C@H]1O | Not met |
| CC1(C)SCN(C(=O)[C@@H](O)[C@H](Cc2ccccc2)NC(=O)COc2cccc(N)c2)[C@@H]1C(=O)N[C@H]1c2ccccc2C[C@H]1O | Met |
| COc1cccc(OCC(=O)N[C@@H](Cc2ccccc2)[C@H](O)C(=O)N2CSC(C)(C)[C@H]2C(=O)N[C@H]2c3ccccc3C[C@H]2O)c1 | Met |

====

# Ki per entry for Plasmepsin II (Plasmodium falciparum, UniProt P46925)
Endpoint name: Ki

| Smiles record | Observed measurement |
| --- | --- |
| CC1(C)SCN(C(=O)[C@@H](O)[C@H](Cc2ccccc2)NC(=O)COc2cccc(O)c2)[C@@H]1C(=O)N[C@H]1c2ccccc2C[C@H]1O | 0.01 µM |
| Cc1ccc(OCC(=O)N[C@@H](Cc2ccccc2)[C@H](O)C(=O)N2CSC(C)(C)[C@H]2C(=O)N[C@H]2c3ccccc3C[C@H]2O)cc1 | 0.055 µM |
| CC1(C)SCN(C(=O)[C@@H](O)[C@H](Cc2ccccc2)NC(=O)COc2ccccc2N)[C@@H]1C(=O)N[C@H]1c2ccccc2C[C@H]1O | 0.126 µM |
| CC1(C)SCN(C(=O)[C@@H](O)[C@H](Cc2ccccc2)NC(=O)COc2c(F)cccc2F)[C@@H]1C(=O)N[C@H]1c2ccccc2C[C@H]1O | 0.014 µM |
| CC1(C)SCN(C(=O)[C@@H](O)[C@H](Cc2ccccc2)NC(=O)COc2c(Cl)cccc2Cl)[C@@H]1C(=O)N[C@H]1c2ccccc2C[C@H]1O | 0.039 µM |
| CC1(C)SCN(C(=O)[C@@H](O)[C@H](Cc2ccccc2)NC(=O)COc2cccc(CO)c2)[C@@H]1C(=O)N[C@H]1c2ccccc2C[C@H]1O | 0.009 µM |

Provenance of the data: ChEMBL document CHEMBL1151686
